Listed below: Ratio IC50 values for each entry.
- METHOD: Selectivity ratio of IC50 for HIV1 group M subtype B reverse transcriptase p66 A502F mutant RNase H activity to IC50 for HIV1 reverse transcriptase RNase H activity

Worked cases, answers included:
[[record]]
molecule = "CC(C)c1ccc(O)c(=O)c(O)c1 [BETA-THUJAPLICINOL]"
parameter_measured = "Ratio IC50"
result = 0.85

[[record]]
molecule = "COc1cc(N2CCCC2)c(OC)cc1/C=C1/NC(=O)NC1=O"
parameter_measured = "Ratio IC50"
result = 3.5

[[record]]
molecule = "CCOc1ccc(/C=C2\\SC(=O)NC2=O)cc1OCc1ccc(Cl)c(Cl)c1"
parameter_measured = "Ratio IC50"
result = 5.3


# evaluate next
Query Ratio IC50 for `CCOc1cc(/C=C2\SC(=S)N(c3ccccc3)C2=O)cc([N+](=O)[O-])c1O` 2.1

Reference source: ChEMBL document CHEMBL4261575
